Method Notes: yeast display, Sf9 membrane polyspecificity reagent, FACS + sequencing; frameworks hold sequencing errors
Recorded Metric: polyreactivity (PSR sort gate)

QVQLVESGGGLVQAGGSLRLSCAASGSTFYYYAMGWYRQAPGKERELVAAITYSGGSTTYADSVKGRFTISRDNAKNTVYLQMNSLKPEDTAVYYCAAYVYRYHRVAYEYWGQGTQVTVSS
high polyreactivity
QVQLEESGGGVVQAGGSLRLSCAASGIIFYRYAMGCYRQAPGKERELVAAISKNGGRTYYADSVKGRFTISRDNAKNTVYLQMNSLKPEDTAVYYCNARYGYYLYWGQGTQVTVSS
high polyreactivity
QVQLVESGGGLVQAGGSLRLSCAASGRTFDGYAMGWYRQAPGKERELVAAISTSGVRTYYADSVKGRFTISRDNAKNTVYLQMNSLKPEDTAVYYCAADWTGGYEYWGQGTQVTVSS
high polyreactivity
QVQLVESGGGLFQAGGSLRLSCAASGRTFQVNAMAWYRHAPGKERELVAAISASDGSTYADSVKGRFTISRDNAKNTVYLQMNSLKPEDTAVYYCNKADYGGHRTSEQVGWVYLYDYWGQGTQVTVSS
low polyreactivity
QVQLVESGGGLVQAGGSLRLSCAASGLIFTNNAMGWYRQAPGKERELVAGINSGGRTNYADSVKGRFTISRDNAKNTVYLQKNSLKPEDTAVYYCAARWWVKSRPNRYNYWGQGTQVTVSS
high polyreactivity
QVQLVESVGGLVQAGGSLRLSCAASGFTFHDYAMGWYRQAPGKERELVAAIYFSGGRTYYADSVKGRFTISRDNAKNTVYLQMNSLKPEDNAVYYCNVPYYSFRELSSYYWGQGTQVTVSS
high polyreactivity
QVQLVESGGGLVQAGGSLRLSCAASGSTFSPYAMGWYRHAPGKERELVAAITSGGGSTYYADSVKGRFTISRDNAKNTVYLQMNSLKPEDTAVYYCNAYLYYLGGPYDYWGQGTQVTVSS
high polyreactivity
QVQIVESGGGLVQAGGSLRLSCAASGRTLSYYAMGWYRQAPGKEREFVAAITGSGGSTYYADSVKGRFTISRDNAKNYVYFQMNSLKPEDTAVYYCNAKGLGVFTVEYYYWGQGTQVTVSS
low polyreactivity
QVQLVESGGGLVQAGGSLRLSCAASGFTFHKNAMGWYRQAPGKERELVAAITYRGGSTSYADSVKGRFTISRDNAKNTFYLQMNSLKPEDTAVYYCAAELRPYITYDGPRKKFYYWGQGTQVTVSS
high polyreactivity
QVQLVESGGGLVQAGGSLRLSCAASGFTFRHYTMGWYRQAPGKERELVAAISSSGVTTYYADSVKGRFTISRDNAKNTVYLQMISLKPEDTAVYYCADRPYYYYVDYDYWGLGTQVTVSS
high polyreactivity
QDQHVESGGGLVQAGASLRLSCSASGRIFRRYAMGWYRQAPGKERELVAAISWSGGTTYYADSVKGRFTISRDNAKNTVYLQINSLKPEDTAVYYCAKLYSSVTTTYPYGLPRYDSWGQGTQVTLSS
high polyreactivity

###

Method Notes: yeast display, Sf9 membrane polyspecificity reagent, FACS + sequencing; frameworks hold sequencing errors
Recorded Metric: polyreactivity (PSR sort gate)

QVQLVESGGGLVQAGGSLRLSCAASGSIFNGYAMGWYRQAPGKERELVADIRSGGSTYYADSVKGRFTISRDNAKYTVYLQMNSLKPEDTAVYYCAADTITDGYDYWGQGTQVTVSS
low polyreactivity
QVQLVESGGGLVQAGGSLRLSCAASGSIFGVYAMGWYRQAPGKERELVARISGSSGSTRYSDSVKGRFTISRDNAKNTVYLQMNSLKPEDTAVYYCAARAIFRQGDRIYDSWGQGTQVTVSS
high polyreactivity
QVQLVESGGGLVQAGGSLRLSCSASGRTSVLYAMGWYRQAPGKEREFVAAITWNSGSTYYADSVKGRFTISRDHAKNTVYLQMISLKPEDTAVYYCNADYYFSSYRSTYDYWGQGTQVTVSS
low polyreactivity
QVQLVESGGGLVEAGGSLRLSCAASGGIFPVNAIGWYRQAPGKERELVATITYDGANTYYADSVKGRFTISRDNAKNTVYLQMNRLKPEDTAVYYCAKDRLSFYGYISYIGYGYDYWGQGTQVTVSS
low polyreactivity
QVQLVESGGGLVQAGGSLRLSCAASGRTILHYAMGWYSQAPGKERELVASISSGVSTHYADSVKGRFTISRDNAKNTVYLQMNSLIPEDTAVYDCAARPYRIGRYGYDYDYWGQGTQVTVSS
high polyreactivity
QVQLVESGGGLVQAGGSLRLISAASGSIFDEYAMGWYRQAPGKERELVAAISSSGTSTYYADSVKGRFTISRDNAKNTVYLQMNSLKPEYTAVYYCAARSAFLKSGYLMDYWGHGTQVTVSS
low polyreactivity
QVQLVESGGGLVQAGGSLRLSCAASGSTFLDNTMGWYRQAPGKEREFVAAISSSVYSTYYADSVKGRFSISRDNAKNTVYLQMNSLKPEDTAVYFCAADRGFYPSLWDYDYWGQGTQVTVSS
low polyreactivity
QVQLVESGGGLVQAGGSLRLSCAASGRIFRFNAMGWYRQAPGKERELVAAITSGVRTNYADSVKGRFTISRDNAKNTVYLQMNSLKPEDTAVYYCAASRHYPGYRRYDYWGQGTQVTVSS
high polyreactivity
QVHLVESGGGLVQAGGSLRLSCADSGTTFHKYAMGWYRQAPGTERELVARISVGGDSTYYADSVKGRFTISRDNAKNTDYLQIISLKPEDTAVYYCAKVRYLVFLYPPRYYYWGQGTEVTVSS
low polyreactivity
QVQLVESGGGLVQAGGSLRLSCAASGLTFKYYAMGWYRQAPGKERELVAAITATGGRTYYADSVKGRFTISRDIAKNTVYLQLNSLNPEDTAVYYCNARQYQTYYFYKHDYWGQGTQVSVSS
high polyreactivity
QVHLVESGGGLVQAGGSLPLSCAASGIIFGGYDMGWYRPAPGIERELVAAISWSGGSTYYADSVKGRFTISRDNAKNTVYLPMNSLKPEDTAVYYCAAAYYAPTRVYYYWGQGTQVTVSS
low polyreactivity
QVQLVESGGGLVQAGGSLRLSCAASGSTFPVNAMGWYRQAPGKERELVAAISSRGSSTYYADSVKGRFTISRDNAKNTVYLQMNSLKPVDTAVYYCAAPQRYPRFYYWGQGTQVTVSS
high polyreactivity
QVQLVESGGGLVQAGGSLRLTCAASGFIFSRYTMGWYRQAPGKERELVAAISRRGGNTYYADSVKGRFTISRDNAKNTVYLQMNSLKPEDTAVYYCAADYAWPLRVTGDYWGQGTQVTVSS
low polyreactivity
QVQLVESCGGLVQAGGSLRLSCAGSGITIYSYAMGWYRQAPGKERELVAAITLTGGTTYYADSVKGRFTISRDNAKNTVYLQMNSLKPEDTAVYYCNADYGGGVDGTYKYYSEYDYWGQGTQVTVSS
low polyreactivity
QVQLVESGGGLVQAGGSLRLSCAASGRIFSSKAMGWYRQAPGKERELVAAISWIVGRTYYADSVKGRFTISRDNAKNTVYLQMNSLIPEATAVYYCAKGSYYVRNRGWGYDYWGQGTQVTVSS
high polyreactivity
QVQLVESGGGLVQAGGSLRLSCAASGRTFLYYAMGWYRQAPGKERELVAGITSGGSTNYADSVKGRFTISRDNAKNTVYLQMNSLKPEATAVYYCAVDQGYSRTADVNYDYWGQGTQVTVSS
low polyreactivity
QVQLVESGGGLVQAGGSLRLSCAASGYTFYRYAMGWYRQAPGKERELVAGIDRSGTRTYYADSVKGRFTISRDNAKNTVYLQMNSLKPEDTAVYYCNAVAYYVSKYDYWGQGTQVTVSS
high polyreactivity
QVHLVESGGGLVQAGGSLRLSCAASGITFAWYAMGWYRQAPGKERELVAAISDRGGSTYYADSVKGRFTMSRDNAKNTVDLQMNSLKPEETAVYYCAADYRYYWRSGASSRMDYWGQGTQVTVSS
high polyreactivity
QVQLVESGGGLVQAGGSLRLSCAASGRTFSAYAMGWYRQAPGKERELVAAISRRGGSTYYADSVKGRFTISRDNAKNTVYLQMNSLKPEDTAVYYCAADVYKQYGYYYWGQGTQVTVSS
high polyreactivity
QVQLVESGGGLVQAGGSLRLSCAASGRIISNYAMGWYRQAPGNERELVAAITVIGGRTYYADSVKGRFTISRDNAKNTVYLQMNSLKPEDTAVYYCNAEEYWYDGFYWLSYDYWGQGTQVTVSS
high polyreactivity
QVQLVESVGGLVQAGRSHRLSGAASCFTFTGYALGWYRQAPGKEREFVAAISRGGSTKYADSVMGRFTISRDNAKNTVYLQMNSLKPEDTAVYYCDASPVYGISRYTLGIYNYGGQGTQVTVSS
high polyreactivity
